- system: ERK5 (Homo sapiens, UniProt Q13164)
- Construct: made in house
- Sequence (Q13164 whole entry): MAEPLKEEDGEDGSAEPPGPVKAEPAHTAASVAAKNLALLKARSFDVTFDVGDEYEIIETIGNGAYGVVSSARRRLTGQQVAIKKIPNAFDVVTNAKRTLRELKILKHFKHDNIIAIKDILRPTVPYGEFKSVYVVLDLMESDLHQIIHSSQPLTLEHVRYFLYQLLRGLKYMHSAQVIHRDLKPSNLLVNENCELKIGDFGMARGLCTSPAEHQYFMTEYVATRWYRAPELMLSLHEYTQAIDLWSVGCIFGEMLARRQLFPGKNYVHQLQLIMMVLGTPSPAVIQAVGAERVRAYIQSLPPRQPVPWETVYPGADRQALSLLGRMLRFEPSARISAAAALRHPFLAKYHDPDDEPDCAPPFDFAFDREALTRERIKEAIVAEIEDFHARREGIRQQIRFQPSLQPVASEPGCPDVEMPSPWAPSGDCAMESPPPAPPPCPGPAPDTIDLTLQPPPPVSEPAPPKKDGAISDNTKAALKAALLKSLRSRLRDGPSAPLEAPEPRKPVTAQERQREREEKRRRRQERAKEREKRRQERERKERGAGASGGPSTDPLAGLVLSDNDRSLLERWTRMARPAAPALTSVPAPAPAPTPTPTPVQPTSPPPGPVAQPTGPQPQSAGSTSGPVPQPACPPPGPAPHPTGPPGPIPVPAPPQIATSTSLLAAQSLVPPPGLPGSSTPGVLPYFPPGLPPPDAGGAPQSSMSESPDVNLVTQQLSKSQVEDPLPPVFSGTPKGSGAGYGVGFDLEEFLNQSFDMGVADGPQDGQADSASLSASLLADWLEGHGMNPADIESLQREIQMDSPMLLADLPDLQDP
- assay.protocol: ERK5 IMAP assay (fluorescence polarisation)
- Type: biochemical
Each item that follows carries a reported pIC50.
// returns pIC50 (minus log10 of molar concentration), number only

// lookup pIC50 for O=C(Nc1ccncc1)c1cc(C(=O)c2c(F)cccc2Br)c[nH]1
6.17

// lookup pIC50 for O=C(Nc1ccncc1)c1cc(C(=O)c2c(F)cccc2F)c[nH]1
6.05

// lookup pIC50 for O=C(Nc1cccnc1)c1cc(C(=O)c2c(F)cccc2F)c[nH]1
5.95

// lookup pIC50 for O=C(Nc1ccncc1)c1cc(C(=O)c2c(F)cccc2Cl)c[nH]1
6.22

----------
Each item that follows carries a reported IC50.
- system: ERK5 (Homo sapiens, UniProt Q13164)
- Construct: made in house
- assay.protocol: ERK5 IMAP assay (fluorescence polarisation)
- Format: biochemical
- stated.conditions: average (e.g. geometric mean) where more than one data point; read-out: ERK5 IC50
Kindly provide the numeric value in nM only, without the unit symbol.

// worked examples, IC50 included
CN1CCN(c2cc(NC(=O)c3cc(C(=O)c4c(F)cccc4Cl)c[nH]3)ccn2)CC1 : 137
COc1ccc(F)c(C(=O)c2c[nH]c(C(=O)NC3CCN(C)CC3)c2)c1Cl : 173
O=C(Nc1ccncn1)c1cc(C(=O)c2c(F)cccc2Br)c[nH]1 : 1800

// lookup IC50 for O=C(Nc1ccc(CO)nc1)c1cc(C(=O)c2c(F)cccc2Cl)c[nH]1
530

// lookup IC50 for CN(C)Cc1ccc(NC(=O)c2cc(C(=O)c3c(Cl)ccc(Cl)c3F)c[nH]2)cn1
22

// lookup IC50 for Cc1cccc(F)c1C(=O)c1c[nH]c(C(=O)NC2CCNCC2)c1
1400

// lookup IC50 for CCc1cccc(F)c1C(=O)c1c[nH]c(C(=O)Nc2cccnc2)c1
12700

// lookup IC50 for O=C(Nc1cnc(CC2CCNCC2)nc1)c1cc(C(=O)c2c(Cl)ccc(Cl)c2F)c[nH]1
7.5

----------
- system: ERK5 (Homo sapiens, UniProt Q13164)
- Construct: made in house
- assay.protocol: ERK5 IMAP assay (fluorescence polarisation)
- Assay type: biochemical
- stated.conditions: average (e.g. geometric mean) where more than one data point; read-out: ERK5 IC50
value.kind: IC50 (µM)
Kindly provide the numeric value in µM only, without the unit symbol.

Cc1ccc(F)c(C(=O)c2c[nH]c(C(=O)Nc3cccnc3)c2)c1Cl : 0.649
COc1ccc(Cl)c(C(=O)c2c[nH]c(C(=O)Nc3ccc(CC4CCN(C)CC4)nc3)c2)c1F : 0.0102
CCOc1ccncc1NC(=O)c1cc(C(=O)c2c(F)cccc2Cl)c[nH]1 : 2.31
O=C(Nc1ccc2cn[nH]c2c1)c1cc(C(=O)c2c(F)cccc2Cl)c[nH]1 : 1.54
CCCc1ncccc1NC(=O)c1cc(C(=O)c2c(Cl)ccc(Cl)c2F)c[nH]1 : 3.54

// lookup IC50 for CN1CCC(NC(=O)c2cc(C(=O)c3c(F)cccc3C3CC3)c[nH]2)CC1
8.23

// lookup IC50 for O=C(Nc1cnc(N2CCC(O)CC2)nc1)c1cc(C(=O)c2c(F)cccc2Cl)c[nH]1
2.23

// lookup IC50 for O=C(Nc1ccnc(N2CCOCC2)c1)c1cc(C(=O)c2c(Cl)ccc(Cl)c2F)c[nH]1
0.343
